Source of measurements: ChEMBL document CHEMBL1201861

test system: MOLT-4; assay: cells; assay type: functional, cell-based, Homo sapiens; conditions: Homo sapiens, MOLT-4;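 further: growth inhibition of MOLT-4 cells, determined with a cell viability readout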
Description: SANGER: Inhibition of human MOLT-4 cell growth in a cell viability assay.
measurement-label: log10(IC50) (log10 of the value in µM)
The figures below represent log10 of IC50, where IC50 is stated in µM.

The observed log10(IC50) for CS(=O)(=O)N1CCN(Cc2cc3nc(-c4cccc5[nH]ncc45)nc(N4CCOCC4)c3s2)CC1 [PICTILISIB] when tested with MOLT-4 stands at -0.20

The observed log10(IC50) for Nc1ccccc1NC(=O)c1ccc(CNC(=O)OCc2cccnc2)cc1 [ENTINOSTAT] when tested with MOLT-4 stands at 0.01

The observed log10(IC50) for CC1(C)CCC(c2ccc(Cl)cc2)=C(CN2CCN(c3ccc(C(=O)NS(=O)(=O)c4ccc(N[C@H](CCN5CCOCC5)CSc5ccccc5)c(S(=O)(=O)C(F)(F)F)c4)cc3)CC2)C1 [NAVITOCLAX] when tested with MOLT-4 stands at -0.82

The observed log10(IC50) for CCCCCCCCCCCC1=C(O)C(=O)C=C(O)C1=O [EMBELIN] when tested with MOLT-4 stands at 1.03

The observed log10(IC50) for NC1(c2ccc(-c3nc4ccn5c(=O)[nH]nc5c4cc3-c3ccccc3)cc2)CCC1 [MK-2206] when tested with MOLT-4 stands at -0.09

The observed log10(IC50) for C/C(=C\c1csc(C)n1)[C@@H]1C[C@@H]2O[C@]2(C)CCC[C@H](C)[C@H](O)[C@@H](C)C(=O)C(C)(C)[C@@H](O)CC(=O)O1 [PATUPILONE] when tested with MOLT-4 stands at -2.60

The observed log10(IC50) for COc1ccc(-c2cc3nccn3c(Nc3ncccc3C(N)=O)n2)cc1OC when tested with MOLT-4 stands at 0.76

* * *

system: MZ1-PC; assay: cells; assay type: functional, cell-based, Homo sapiens; settings: Homo sapiens, MZ1-PC;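 further: cell viability assay measuring growth inhibition of human MZ1-PC cells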
Description: SANGER: Inhibition of human MZ1-PC cell growth in a cell viability assay.
Can you tell me IC50 for the items I'm about to list?
Write the answer as a number in µM, unit excluded.

The observed IC50 for C=CC(=O)N1CCCC(Nc2nc(Nc3ccc(N(C)C(=O)CC)cc3)nc3[nH]cnc23)C1 (stereo not given) when tested with MZ1-PC stands at 7.94

The observed IC50 for CC(C)C[C@H](NC(=O)[C@H](Cc1ccccc1)NC(=O)c1cnccn1)B(O)O when tested with MZ1-PC stands at 0.00354

* * *

system: EB2; assay: cells; format: functional, cell-based, Homo sapiens; details: eb2;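 further: growth inhibition of EB2 cells, read out with a cell viability assay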
Description: SANGER: Inhibition of human EB2 cell growth in a cell viability assay.
pIC50: −log10 of the molar value. Where a SMILES comes first, the peptide text is derived from it. The star is where a group is joined. Cbz = O=C(OCc1ccccc1)*
measurement-label: pIC50

For CC(C)C[C@@H](C=O)NC(=O)[C@H](CC(C)C)NC(=O)[C@H](CC(C)C)NC(=O)OCc1ccccc1 [MG-132] (Cbz-Leu-Leu-Leu-aldehyde) the compound record lists pIC50 as < 6.00

* * *

Can you tell me pIC50 for the items I'm about to list?
tested on: NCI-H510A; test: cells; assay type: functional, cell-based, Homo sapiens; conditions: Homo sapiens, NCI-H510A
Description: SANGER: Inhibition of human NCI-H510A cell growth in a cell viability assay.
pIC50: −log10 of the molar value.

The observed pIC50 for Cc1cc(N2CCOCC2)cc2[nH]c(-c3c(NC[C@@H](O)c4cccc(Cl)c4)cc[nH]c3=O)nc12 when tested with NCI-H510A stands at < 5.29

The observed pIC50 for NC(=O)c1ccc(N(C(N)=O)c2c(F)cccc2F)nc1-c1ccc(F)cc1F when tested with NCI-H510A stands at < 5.70

The observed pIC50 for COc1ccc(-c2cc3nccn3c(Nc3ncccc3C(N)=O)n2)cc1OC when tested with NCI-H510A stands at < 5.10

The observed pIC50 for COc1cc(N2CCC(N3CCN(C)CC3)CC2)ccc1Nc1ncc(Cl)c(Nc2ccccc2S(=O)(=O)C(C)C)n1 when tested with NCI-H510A stands at < 5.70

The observed pIC50 for CCCCCCCCCCCC1=C(O)C(=O)C=C(O)C1=O when tested with NCI-H510A stands at < 4.49
